Target: human alpha-synuclein (human, UniProt P37840 1-140)
Experiment: SPR Biacore 3000, synuclein ligand format
property.label: Ka (M⁻¹)
# output: bare number, implied unit M⁻¹

Guide cases for Ka, answers given:
>  <binder>
2E6-HLD-1 (antibody, V domains shown, Humanized 2E6 tested as IgG; also called Humanized HLD-1) VH: QVQLVQSGAEVKKPGASVKVSCKASGYTFTSYWMHWMRQAPGQGLEWIGRIDPNSGTTKYNVNFKTRATLTVDKSTSTAYMELSSLRSEDTAVYYCARLGHYGNLYAMDYWGQGTLVT VL: EIVLTQSPATLSLSPGERATLSCSASSSVSYMHWYQQKPGQAPRRWIYDTSKLASGVPARFSGSGSGTDYTLTISSLEPEDFAVYYCQQWSSNPPTFGQGTKLEIKR

>  <Ka (M⁻¹)>
5.81e+08

$$$$
>  <binder>
2E6-HLD-2 (antibody, V domains shown, Humanized 2E6) VH: QVQLVQSGAEVKKPGASVKVSCKASGYTFTSYWMHWVRQAPGQGLEWIGRIDPNSGTTKYNVNFKTRATLTVDKSTSTAYMELSSLRSEDTAVYYCARLGHYGNLYAMDYWGQGTLVT VL: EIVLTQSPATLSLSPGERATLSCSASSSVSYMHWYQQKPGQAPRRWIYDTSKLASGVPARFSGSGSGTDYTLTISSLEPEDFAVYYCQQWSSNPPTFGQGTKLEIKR

>  <Ka (M⁻¹)>
2.04e+08

$$$$
>  <binder>
ch2E6 (antibody, V domains shown, also called chimeric 2E6) VH: QVQLQQPGAELVKPGASVKLSCTASGYTFTSYWMHWMKQRPGRGLEWIGRIDPNSGTTKYNVNFKTKATLTVDKPSSTAYMHLSSLTSEDSAVYYCARLGHYGNLYAMDYWGQGTSVT VL: QIVLTQSPAIMSASPGEKVTMTCSASSSVSYMHWYQQKSGTSPKRWIYDTSKLASGVPTRFSGSGSGTSYSLTISSMDTEDAATYYCQQWSSNPPTFGAGTKLELK

>  <Ka (M⁻¹)>
2.38e+08

$$$$

# next binder below
Lookup: Please look up its Ka: 2E6 HLD 3 (antibody, V domains shown) VH: QVQLVQSGAEVKKPGASVKVSCKASGYTFTSYWMHWMRQAPGQGLEWIGRIDPNSGTTKYNVNFKTRVTLTVDKSTSTAYMELSSLRSEDTAVYYCARLGHYGNLYAMDYWGQGTLVT VL: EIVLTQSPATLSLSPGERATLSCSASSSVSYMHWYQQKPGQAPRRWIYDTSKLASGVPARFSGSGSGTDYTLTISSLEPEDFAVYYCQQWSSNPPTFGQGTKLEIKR
Found: 1.88e+08
